B1: ANKRD40 (parent)
chain: VCCCELGVNPDQVEKIRKLPNTLL

Variants of: B1
RUN DESCRIPTION: protein stability index of a GFP-peptide fusion (GPS, HEK-293T) (PSI 1-6); higher = more stable;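 note: lentivirally expressed fusions sorted by FACS into six bins by GFP to DsRed ratio, PSI derived from sequencing read proportions per bin multiplied by bin number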
CONDITION DETAILS: c terminus: a fixed tail appended
# protein stability index >= 2 gives 1, anything below gives 0

R17D; 1
V1Q; 1
P10S; 0
G7K; 1
K18L; 0
E5K; 1
C4D; 1
P20R; 0
K18H; 1
C3A; 1
D11R; 1
P20I; 0
G7N; 0
T22L; 1
K15C; 0
R17I; 1
E14H; 1
L24N; 1
P10I; 0
P10A; 1
L24G; 1
V1A; 0
